Known IC50 of a selection of compounds
# Target: BCL2 (Homo sapiens (Human))
# Sequence (P10415 whole entry): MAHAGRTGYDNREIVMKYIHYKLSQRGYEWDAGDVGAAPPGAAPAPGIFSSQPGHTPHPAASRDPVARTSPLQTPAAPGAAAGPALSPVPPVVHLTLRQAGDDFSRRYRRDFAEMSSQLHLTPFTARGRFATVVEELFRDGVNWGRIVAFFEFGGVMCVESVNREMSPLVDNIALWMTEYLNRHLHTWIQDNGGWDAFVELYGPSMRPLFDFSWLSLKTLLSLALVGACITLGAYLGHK
# Method: Molecular level activity test of anti-apoptotic protein BCL2 (HTRF, binding to Bim peptide)
# Protocol Conditions: HTRF, binding of BCL2 to Bim peptide; read-out: BCL2 nM (inhibitory activity, IC50)

Below: 3 compounds and their reported IC50.
[
  {
    "Compound": "CC(C)c1ccccc1[C@@H]1CCCN1C1CC2(CCN(c3cc(Oc4cnc5[nH]ccc5c4)c(C(=O)NS(=O)(=O)c4cc([N+](=O)[O-])c(NCC5CCC(O)CC5)c5[nH]cnc45)cc3F)CC2)C1 (stereo partly shown)",
    "Val": "< 10 nM"
  },
  {
    "Compound": "CC(C)c1ccccc1[C@@H]1CCCN1C1CC2(CCN(c3cc(Oc4cnc5[nH]ccc5c4)c(C(=O)NS(=O)(=O)c4cc([N+](=O)[O-])c(NC[C@H]5C[C@@](C)(O)C5)c5[nH]cnc45)cc3F)CC2)C1",
    "Val": "< 10 nM"
  },
  {
    "Compound": "COc1ccc(CN2CCN(C3CC4(CCN(c5cc(Oc6cnc7[nH]ccc7c6)c(C(=O)NS(=O)(=O)c6cc([N+](=O)[O-])c(NCC7CCOCC7)c7[nH]cnc67)cn5)CC4)C3)[C@H](c3ccccc3C(C)C)C2)cc1",
    "Val": "< 10 nM"
  }
]

Now for another entry.
Give a short answer stating reported IC50 for "COc1ccc(CN2CCN(C3CC4(CCN(c5ccc(C(=O)NS(=O)(=O)c6cc([N+](=O)[O-])c(NCC7(F)CCOCC7)c7c6OCO7)c(Oc6cnc7[nH]ccc7c6)c5)CC4)C3)[C@H](c3ccccc3C(C)C)C2)cc1" .
< 10 nM

====

# Target: BCL-XL (Homo sapiens (Human), UniProt Q07817)
# Sequence (Q07817 whole entry): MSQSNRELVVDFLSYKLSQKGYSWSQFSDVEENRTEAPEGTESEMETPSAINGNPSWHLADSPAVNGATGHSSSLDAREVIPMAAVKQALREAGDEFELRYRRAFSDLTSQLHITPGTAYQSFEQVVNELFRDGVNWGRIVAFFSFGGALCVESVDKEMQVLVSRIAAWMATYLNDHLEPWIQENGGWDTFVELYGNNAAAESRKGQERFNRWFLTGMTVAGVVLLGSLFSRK
# Method: BCL-XL enzyme molecular level activity test (HTRF, binding to BIM peptide)
# Protocol Conditions: binding of BCL-XL to BIM peptide, values given in μM, read-out: BCL-XL inhibitory activity (IC50)
Items are presented alongside their recorded IC50.
Response body: numeric value in µM, unit text excluded.

Look up and state reported IC50 for "CC(C)c1ccccc1[C@@H]1CN(Cc2cccc(F)c2F)CCN1C1CC2(CCN(c3cc(Oc4cnc5[nH]ccc5c4)c(C(=O)NS(=O)(=O)c4ccc(NCC5(F)CCOCC5)c([N+](=O)[O-])c4)cc3F)CC2)C1"
1.9

Give me measured IC50, please, for this compound: "COc1ccc(CN2CCN(C3CC4(CCN(c5cc(Oc6cnc7[nH]ccc7c6)c(C(=O)NS(=O)(=O)c6cc([N+](=O)[O-])c(NCC7CCOCC7)c7c6OCO7)cc5F)CC4)C3)[C@H](c3ccccc3C(C)C)C2)cc1"
1.6

====

# Target: BCL2 (D103Y) (Homo sapiens (Human), UniProt P10415, D103Y)
# Sequence (P10415 whole entry D103Y): as the sequence (P10415 whole entry) above, with D103Y counted along it
# Method: Molecular level activity test of BCL2 (D103Y) (HTRF, binding to Bim peptide)
# Protocol Conditions: read-out: BCL-2 (D103Y) (nM) (inhibitory activity, IC50)
Assay Endpoint: IC50

[
  {
    "Compound Smiles": "COc1ccc(CN2CCN(C3CC4(CCN(c5cc(Oc6cnc7[nH]ccc7c6)c(C(=O)NS(=O)(=O)c6cc([N+](=O)[O-])c(NCC7CCOCC7)c7c6OCCO7)cc5F)CC4)C3)[C@H](c3ccccc3C(C)C)C2)cc1",
    "Val": "< 10 nM"
  },
  {
    "Compound Smiles": "COc1ccc(CN2CCN(C3CC4(CCN(c5cc(Oc6cnc7[nH]ccc7c6)c(C(=O)NS(=O)(=O)c6ccc(NCC7(F)CCOCC7)c([N+](=O)[O-])c6)cc5F)CC4)C3)[C@H](c3ccccc3C(C)C)C2)cc1CN(C)C",
    "Val": "< 10 nM"
  }
]

GET IC50 | system: BCL2 (D103Y) (Homo sapiens (Human), UniProt P10415, D103Y) | item: "COc1ccc(CN2CCN(C3CC4(CCN(c5cc(Oc6cnc7[nH]ccc7c6)c(C(=O)NS(=O)(=O)c6ccc(NCC7(F)CCOCC7)c([N+](=O)[O-])c6)cc5F)CC4)C3)[C@H](c3ccccc3C(C)C)C2)cn1"
< 10 nM

Specify the recorded IC50 for "COc1ccc(CN2CCN(C3CC4(CCN(c5cc(Oc6cnc7[nH]ccc7c6)c(C(=O)NS(=O)(=O)c6ccc(NC[C@H]7CC[C@](C)(O)CC7)c([N+](=O)[O-])c6)cn5)CC4)C3)[C@H](c3ccccc3C(C)C)C2)cc1" , system: BCL2 (D103Y) (Homo sapiens (Human), UniProt P10415, D103Y).
< 10 nM
